Tested on: Plasmodium falciparum
method: ST_JUDE: Cytotoxicity against Plasmodium falciparum D10 transfected with yeast DHOD
Format: functional, organism-based
readoutType: EC50 (nM)
Only the number, expressed in nM, is required.

Examples from the recorded data:
COCCO/C(O)=C1\C(C)=NC2=C(C(=O)CC(c3ccc(OC)c(OC)c3)C2)C1c1ccc(F)cc1 (stereo not given); 2990
O=C(Nc1cccc(Cl)c1N1CCOCC1)C(Cl)(Cl)Cl; 3380
CCO/C(O)=C1\C(C)=NC2=C(C(=O)CC(c3ccc(OC)c(OC)c3)C2)C1c1ccccc1C (stereo not given); 87.7
Cc1ccc(C)c(N2CCN(Cc3cc(Br)ccc3O)CC2)c1; 579
Cn1c(=O)c2c(-c3ccc(C(C)(C)C)cc3)n(-c3cc(Cl)ccc3O)cc2n(C)c1=O; 982
Cc1ccc2c(c1)N(C)/C(=C/c1sc3ccccc3[n+]1CCO)S2; 362
CN(C)c1cc[n+](CC(=O)c2ccc(Br)cc2)cc1; 4300
Cc1ccc2c(c1)N(C)/C(=C/c1cccc[n+]1C)S2; 859

Now take the following compound into account.
The measured EC50 associated with CC(=O)N(C1=C(N(C)C)C(=O)c2ccccc2C1=O)c1ccc(F)cc1 reads 17.6
